Assay Metric: melting point

[[record]]
molecule = "C=CCC(CC=C)n1c(CC)nc2c1c(=O)n(C)c(=O)n2-c1ccc(Cl)cc1Cl"
measured_result = "145 to 146 °C"

[[record]]
molecule = "Cc1cccc(-c2nccc(O)n2)c1"
measured_result = "148 to 150 °C"

[[record]]
molecule = "CCS(=O)(=O)Nc1ccc2c(c1)S(=O)(=O)C=C(c1c(O)c3cc(F)ccc3n(CCC3CC3)c1=O)N2"
measured_result = "140 to 142 °C"

[[record]]
molecule = "CCCCCCCCCCCCCCCCNc1ccc(C(=O)NS(=O)(=O)c2ccc(C)cc2)cc1"
measured_result = "123 to 124 °C"

[[record]]
molecule = "COc1ccc(CN2CCC(c3cn(Cc4ccoc4)c4ccccc34)CC2)cc1C(=O)O"
measured_result = "253 to 255 °C"

[[record]]
molecule = "Nc1nsnc1NCCCOc1cccc(CN2CCCCC2)c1"
measured_result = "137 to 138 °C"

[[record]]
molecule = "CCc1nc2c(N)nc3cc(OCC(=O)N4CCOCC4)ccc3c2n1CC(C)C"
measured_result = "219 to 220 °C"

[[record]]
molecule = "COc1cc2c3c(cccc3c1OC)C(=O)N(O)C2=O"
measured_result = "226 to 228 °C"

[[record]]
molecule = "O=C(O)C(=O)c1ccc(OCCOc2cc3ccccc3cc2OCCOc2ccccc2)cc1"
measured_result = "176 to 177 °C"

[[record]]
molecule = "CCCc1c2nc(C(=O)OCC)cc(OCC)c2cc2c(=O)cc(C(=O)OCC)oc12"
measured_result = "190 to 192 °C"

[[record]]
molecule = "CC12CCC3c4ccc(O)cc4CCC3(C=C(F)F)C1CCC2O (configuration not stated)"
measured_result = "154 to 156 °C"

[[record]]
molecule = "Cc1cc(-c2cc(C(F)(F)F)n3cnc(-c4ccncc4)c3n2)ccc1C(F)(F)F"
measured_result = "225 °C"

[[record]]
molecule = "Cc1cc(-n2ccnc2)c2cccc(OCc3c(Cl)ccc(N(C)C(=O)CN4C(=O)c5ccccc5C4=O)c3Cl)c2n1"
measured_result = "200 to 203 °C"

[[record]]
molecule = "CC1Cc2cccc(S(N)(=O)=O)c2O1 (configuration not stated)"
measured_result = "174 to 177 °C"

[[record]]
molecule = "O=C(c1ccc([N+](=O)[O-])c([N+](=O)[O-])c1)N1CCOCC1"
measured_result = "136 to 137 °C"

[[record]]
molecule = "Cc1cc(-c2cnn3c(C(F)(F)F)cc(-c4ccc(Br)cc4)nc23)cc(C)n1"
measured_result = "258 °C"

[[record]]
molecule = "COC(=O)c1c(OC)c([N+](=O)[O-])c(C(=O)OC)c(OC)c1[N+](=O)[O-]"
measured_result = "126 to 127 °C"

[[record]]
molecule = "COC(=O)C(=O)NC(=O)CC(F)=C(F)F"
measured_result = "33 to 34 °C"

[[record]]
molecule = "COc1ccc(N2CCN(c3ccc(OC)nc3-c3ccc(C)cc3)CC2)cc1"
measured_result = "143 to 146 °C"

[[record]]
molecule = "CCCc1nn(-c2ccc(C(F)(F)F)cn2)cc1CCCOc1ccc(CCC(=O)O)cc1"
measured_result = "118 to 119 °C"

[[record]]
molecule = "O=C(OCc1cccc(Cl)c1)c1ncn2c1[C@@H]1CCCN1C(=O)c1c(Cl)cccc1-2"
measured_result = "114 to 116 °C"

[[record]]
molecule = "CC(C)(C)OC(=O)N1C=CN(CC#N)C(=O)[C@@H]1Cc1ccccc1"
measured_result = "160 to 162 °C"

[[record]]
molecule = "Cc1nc2c(cnn2-c2c(Cl)cc(C(F)(F)F)cc2Cl)c(=O)n1C"
measured_result = "195 °C"

[[record]]
molecule = "CCCCOc1ccc(S(=O)(=O)C2(C(=O)NO)CCN(CCCOc3ccccc3)CC2)cc1"
measured_result = "84 °C"

[[record]]
molecule = "CC(C)(C)OC(=O)[C@H]1N=CSC[C@]1(O)C(F)(F)F"
measured_result = "126 to 128 °C"

[[record]]
molecule = "CC1N(c2cc(CC(Cl)C(=O)O)c(Cl)cc2Cl)NC(=O)N1C(F)F (configuration not stated)"
measured_result = "138 to 141 °C"

[[record]]
molecule = "CCOC(COC1CC2C3CCC4=CC(=O)C=CC4(C)C3(F)C(O)CC2(C)C1(O)C(=O)CCl)OCC (configuration not stated)"
measured_result = "200 to 202 °C"

[[record]]
molecule = "CCCCCC(=O)Nc1ccc2c(c1)c(Cc1ccc(C(=O)O)cc1OC)cn2CC(=O)O"
measured_result = "235 to 240 °C"

[[record]]
molecule = "O=C(Nc1ccc(C(=O)O)c(O)c1)c1ccc(-c2ccccc2)cc1"
measured_result = "266 °C"

[[record]]
molecule = "CC(=O)NCC1CC(c2cc(F)c(N3CCN(C(=O)CO)CC3)c(F)c2)=NO1 (single isomer, unassigned; (-))"
measured_result = "220 to 221 °C"

[[record]]
molecule = "C=CCN(c1ncnc2c1ncn2CCCCCCCCC(=O)O)C1CCCCC1"
measured_result = "100 to 102 °C"

[[record]]
molecule = "CCCC(Cc1ccccc1)c1nc2c([nH]1)c(=O)n(CCC)c(=O)n2CCC (configuration not stated)"
measured_result = "158 to 160 °C"

[[record]]
molecule = "CCCCCCCCCCCCCCCCCCOc1cc(OCCCBr)cc(N(CC(=O)OC)CC(=O)OC)c1"
measured_result = "67 to 69 °C"

[[record]]
molecule = "Cc1nn(C)c(C)c1N1CCN(c2c(C)c(C)c3c(c2C)CC(C)(C)O3)CC1"
measured_result = "162 to 164 °C"

[[record]]
molecule = "Cc1ccc(OCn2c(-c3nonc3NCCC#N)nc3ccccc32)cc1C"
measured_result = "132 to 135 °C"

[[record]]
molecule = "CN(C(=O)N1CCN(C[C@@]2(C)Cn3cc([N+](=O)[O-])nc3O2)CC1)c1ccc(C(F)(F)F)cc1"
measured_result = "100 to 102 °C"

[[record]]
molecule = "CC(C)(c1ccc(S(=O)(=O)N(CCO)CCO)cc1[N+](=O)[O-])[N+](=O)[O-]"
measured_result = "109 to 110 °C"


---

Assay Metric: melting point

[[record]]
compound = "COC(=O)c1c(C(F)F)nc(C(F)(F)F)c(-n2cccc2)c1C1CCC1"
measured_result = "70 to 71 °C"

[[record]]
compound = "CCCCC(CC)C(=O)Nc1ccc(Oc2ccccc2)c2c(=O)c3ccccc3n(C)c12 (stereo not given)"
measured_result = "154 to 156 °C"

[[record]]
compound = "O=c1[nH][nH]c(=O)n1-c1c(F)cc(F)cc1F"
measured_result = "221 to 222 °C"

[[record]]
compound = "CCCCc1nn2cc(C(=O)OCC)ccc2c1C(=O)c1ccc(Br)cc1"
measured_result = "< 50 °C"

[[record]]
compound = "COc1ccc(Nc2ccn(-c3ccc(OCC(=O)O)cc3)n2)cc1"
measured_result = "163 to 165 °C"

[[record]]
compound = "CCOC(=O)c1nc(-c2cc(Cl)c(OC)c(OC)c2)cs1"
measured_result = "92 to 94 °C"

[[record]]
compound = "CCC1(C)NC(=O)c2ccccc2O1 (stereo not given)"
measured_result = "76 to 78 °C"

[[record]]
compound = "CN=C1SCN(Cc2ccccc2)C(=O)N1C"
measured_result = "93 to 95 °C"

[[record]]
compound = "Cc1ncccc1COc1ccc(Cn2cc(CCC(=O)O)c(-c3ccccc3)c2)cc1"
measured_result = "158 to 159 °C"

[[record]]
compound = "CCCCCCCCCCC1(C)OCC(C=Cc2ccc(-c3ccccc3)cc2)OO1 (stereo not given)"
measured_result = "86 to 90 °C"


---

Attribute: melting point
Assay Metric: melting point (°C)

[[record]]
smi = "COC(=O)c1ccc(NC(C)=O)c2c1OCCC2"
measured_result = 175

[[record]]
smi = "CCOC(=O)c1ccc(NCc2cc(Br)ccc2OCc2ccccc2)c(N)c1"
measured_result = 135

[[record]]
smi = "Cc1cn(Nc2ccncc2F)c2ccccc12"
measured_result = 45

[[record]]
smi = "COC(=O)CCCc1cc2nc(Cl)ccc2n1S(=O)(=O)c1ccc2nc(C)sc2c1"
measured_result = 117


---

Attribute: melting point
Assay Metric: melting point

[[record]]
compound = "C=CCOc1cc([N+](=O)[O-])ccc1[N+](=O)[O-]"
measured_result = "66.5 to 68 °C"

[[record]]
compound = "NS(=O)(=O)c1cc(C(=O)O)cc(NCc2ccccc2)c1NCCc1ccccc1"
measured_result = "203 °C"

[[record]]
compound = "CCCC=C1SC(=S)N(N=c2sc3ccccc3s2)C1=O"
measured_result = "236 to 238 °C"

[[record]]
compound = "CCCn1c(=O)n(C2OC(CO)C(O)C2O)c2nc(N)[nH]c(=O)c21 (stereo not given)"
measured_result = "151 to 153 °C"

[[record]]
compound = "C#CCN(CC#C)S(=O)(=O)c1cccc2c(N(C)C)cccc12"
measured_result = "67 to 69 °C"

